Quick reference: Kd of the listed items.
Biological target: HLA-A*02:17
Experiment: IEDB peptide-MHC binding, purified MHC/competitive/radioactivity; filed as Kd, often an IC50 or EC50 that approximates it; bounds were set here for any values at or beyond the usual limits of such assays
Details: source organism: Dengue virus 2 Jamaica/1409/1983
property: Kd (nM)

- TAAAWYLWEV: 1020
- VILAGPMPV: 1360
- SIILEFFLIV: 4020
- LLLLTLLATV: 54.4

====

Target: HLA-A*02:11
Assay: IEDB peptide-MHC binding, purified MHC/direct/fluorescence; filed as Kd, often an IC50 or EC50 that approximates it; bounds were set here for any values at or beyond the usual limits of such assays
Settings: source organism: dengue virus type 1
pKd: −log10 of the molar value.
property: pKd

* YMPSVVETL | ≥ 9.00
